Can you tell me INHIBITION for the items I'm about to list?
- System: Plasmodium falciparum
- test-name: Screen against P. falciparum Asexual Blood Stage (ABS), at 5uM
- Type: functional, Dd2
- experimental-context: tested at 5 uM
The whole screen tested about 65,000 compounds, of which about 2,100 (3.2%) showed an effect of 50% or more. The median lay at about -52%. The sample as a whole holds a higher share of strong results than the screen did.
Answers are plain numbers, in %.

| compound | test-target | reported-measurement |
| --- | --- | --- |
| O=C(NC1CCCN(CCCc2ccccc2)C1)c1ccncc1 (stereo unspecified) | Plasmodium falciparum | -29.1 |
| O=C(c1ccc(F)cc1)N1CCN2C[C@H](OCc3cccnc3)C[C@H]2C1 | Plasmodium falciparum | 1.13 |
| O=C(NC1CCCN(CCCc2ccccc2)C1)c1ccc(Cl)s1 (stereo unspecified) | Plasmodium falciparum | 60.9 |
| COc1nn(C)c2c1CCCN(C(=O)c1ccc3ccccc3n1)C2 | Plasmodium falciparum | -94.4 |
| O=C(NC1CCCN(CCCc2ccccc2)C1)C1=CCCCC1 (stereo unspecified) | Plasmodium falciparum | 2.46 |

Tested system Plasmodium falciparum; INHIBITION recorded for CN1CCN(CCNC(=O)C(OC2CCCC2)c2ccccc2)CC1 (stereo unspecified) was 39.2

====

Can you tell me INHIBITION for the items I'm about to list?
- Test system: Plasmodium falciparum
- test-name: Screen against P. falciparum Asexual Blood Stage (ABS), at 5uM
- Format: functional, Dd2
- experimental-context: tested at 5 uM
Out of some 65,000 compounds screened, about 2,100 (3.2%) showed an effect of 50% or more. The median lay at about -52%. Only a selection was taken, and strong results are over-represented in it overall.
Numbers only, in %.

Would you please look over these solved cases?
| compound | scale-unit | INHIBITION |
| --- | --- | --- |
| O=C1N(Cc2cccc(F)c2F)CCCC1(O)CNCc1ccccc1 (stereo not drawn) | % | 61.9 |
| CC(C)CN1CCCC1c1ccc(C(=O)Nc2cc[nH]n2)s1 (stereo not drawn) | % | 44.6 |
| CCc1nnc(Nc2cccc(C3CCN(c4cnccn4)CC3)n2)s1 | % | 55.5 |
| CCC[C@@H]1CN(Cc2cc3c(cc2OC)OCO3)C[C@H]1C(=O)O | % | -43.7 |
| Nc1ncc(-c2ccc(F)cc2)c(C2CCCNC2)n1 (stereo not drawn) | % | 50.3 |
| CS(=O)(=O)NC[C@]12COC[C@H]1CN(CCc1ccccc1)C2 | % | -29.9 |
| Nc1ncc(-c2ccc(Cl)cc2)c(C2CCCNC2)n1 (stereo not drawn) | % | 48.9 |
| CCc1nnc(Nc2cccc(C3CCN(CC4CC4)CC3)n2)s1 | % | 3.36 |
| c1cc(-c2nc3c(c(NCCc4c[nH]cn4)n2)CCNCC3)ccn1 | % | -225 |
| c1nc(CCNc2nc(C3CC3)nc3c2CCNCC3)c[nH]1 | % | -79.3 |

Hey, can you go through the list below and give me INHIBITION for every item?
1. Cc1cnn(CC(C)NCc2ccc(OCc3cccnc3)cc2)c1 (stereo not drawn)
2. CCCc1noc(CN2CCOCC2C)n1 (stereo not drawn)

Result:
1. 36.7
2. -47.4

Hey, can you go through the list below and give me INHIBITION for every item?
1. CN1CCC(NCC2(O)CCCN(Cc3ccccc3F)C2=O)CC1 (stereo not drawn)
2. COc1ccc(F)c(CN2CCCC(O)(CNCc3ncc[nH]3)C2=O)c1 (stereo not drawn)

Result:
[7.93, -93.5]

====

- Tested on: Plasmodium falciparum
- test-name: Screen against P. falciparum Asexual Blood Stage (ABS), at 5uM
- Format: functional, Dd2
- experimental-context: tested at 5 uM
Screen size: about 65,000 compounds; about 2,100 (3.2%) showed an effect of 50% or more. The median lay at about -52%. The list comes from a sample in which strong results are over-represented; it also holds close analogues and randomly drawn compounds.
The label Met is reserved for INHIBITION strictly under -40%; Not met covers values equal to or above it.

# example entries with known answers
| compound | class-assignment |
| --- | --- |
| Nc1ccc(CC2CCCN(Cc3c[nH]cn3)C2)nn1 (stereo unspecified) | Met |
| Cc1nc(CN2CCCC(CCc3ccc(F)cc3F)C2)c[nH]1 (stereo unspecified) | Not met |
| CC(=O)Nc1nc(C(=O)N2CCCC(n3nc(C)nc3C)C2)cs1 (stereo unspecified) | Met |

Q: For CC1=Nc2c(c(=O)[nH]n2C(C)C)C(c2ccc3nccnc3c2)S1 (stereo unspecified) , is the recorded INHIBITION below the cut-off of -40%?
Result: Met

Q: For CNc1ccc(CC2CCCN(Cc3c[nH]cn3)C2)nn1 (stereo unspecified) , is the recorded INHIBITION below the cut-off of -40%?
Result: Met

Q: For Cc1[nH]c(=O)[nH]c(=O)c1CN1CCCC(CCc2c(F)cccc2F)C1 (stereo unspecified) , is the recorded INHIBITION below the cut-off of -40%?
Result: Met

====

- Tested on: Plasmodium falciparum
- test-name: Screen against P. falciparum Asexual Blood Stage (ABS), at 5uM
- Format: functional, Dd2
- experimental-context: tested at 5 uM
Out of some 65,000 compounds screened, about 2,100 (3.2%) showed an effect of 50% or more. The median lay at about -52%. The list comes from a sample in which strong results are over-represented; it also holds close analogues and randomly drawn compounds.
measurement-kind: INHIBITION (%)
One number for each entry, in %.

| compound | reported-measurement |
| --- | --- |
| COc1ccc(-c2cc(CNc3ncnc4c3CCNCC4)no2)cc1 | 16 |

Hey, can you go through the list below and give me INHIBITION for every item?
1. Cc1ccc(-c2cc(CNc3ncnc4c3CCNCC4)no2)cc1
2. CC(=O)c1cc(CN2CCCCC2c2nc3cc(F)ccc3[nH]2)cs1 (stereo unspecified)
3. CN1CCN(c2ccc(Cl)cc2NC(=O)c2ccco2)CC1
4. CCc1noc(C(C)N(C)CC(=O)Nc2ccc(Cl)c(C(F)(F)F)c2)n1 (stereo unspecified)
5. Cc1noc([C@@H]2C[C@H]3CN(Cc4scnc4C)C[C@H]3O2)n1
6. c1ccc(CN2CCC3(COCc4cnc(NCC5CC5)nc43)C2)cc1 (stereo unspecified)
7. O=C1CNc2ncnc(Nc3cnn(Cc4ccc(F)cc4)c3)c2N1
8. c1cnc(N2CC[C@@H]3O[C@@H](COCc4cccnc4)CC[C@@H]32)nc1

Result:
63.5
12.3
42
-75.8
-40.7
50.2
-134
-60.3

====

Can you tell me INHIBITION for the items I'm about to list?
- System: Plasmodium falciparum
- test-name: Screen against P. falciparum Asexual Blood Stage (ABS), at 5uM
- Format: functional, Dd2
- experimental-context: tested at 5 uM
Among all 65,000 compounds or so, about 2,100 (3.2%) showed an effect of 50% or more. The median lay at about -52%. This excerpt belongs to a sample that is enriched for strong results.
One number for each entry, in %.

Hey, can you go through the list below and give me INHIBITION for every item?
1. Cc1n[nH]c(C)c1-c1cc(-c2ccc[nH]2)nc(N)c1C#N
2. COc1ccc(C(NCc2ccc(C#N)cc2)C2CC2)cc1 (configuration not stated)

Result:
1: -185; 2: 60.9

====

- System: Plasmodium falciparum
- test-name: Screen against P. falciparum Asexual Blood Stage (ABS), at 5uM
- Type: functional, Dd2
- experimental-context: tested at 5 uM
About 2,100 (3.2%) of roughly 65,000 compounds showed an effect of 50% or more. The median lay at about -52%. This excerpt belongs to a sample that is enriched for strong results.
measurement-kind: INHIBITION (%)
Give bare numbers, in %.

Would you please look over these solved cases?
| compound | test-target | INHIBITION (%) |
| --- | --- | --- |
| Cc1nnc(NC(=O)C(C)n2ncc(Br)c2C)s1 (configuration not stated) | Plasmodium falciparum | -120 |
| Cc1c(CN2CCCC2(C)C(=O)N2CCOCC2)cnn1C (configuration not stated) | Plasmodium falciparum | -23.9 |
| COCCN(Cc1cccs1)c1nc(CCN)nc2ccccc12 | Plasmodium falciparum | 62.2 |

Hey, can you go through the list below and give me INHIBITION for every item?
1. NCCc1nc(N(Cc2cncs2)C2CC2)c2ccccc2n1
2. O=C(CC1CC1)N[C@@H]1CN(C(=O)c2ccoc2)C[C@@H]2CCCO[C@@H]21
3. Cc1ccsc1CN(c1nc(CCN)nc2ccccc12)C1CC1
4. O=C1CCC2(CCN(Cc3ccc(F)cc3Cl)CC2)CN1CCO
5. Cc1nccc(C(=O)NC(CN2CCCC2=O)c2ccccc2)n1 (configuration not stated)
6. Cn1cnnc1C1CCN(C(=O)c2cc3c(s2)CCCC3)CC1

Result:
1: -30.2; 2: -102; 3: 51.4; 4: -54; 5: -66.1; 6: -21.6
